Reference for the values: the supplement of paper PMC10567573

B1: C8orf76 (parent)
chain: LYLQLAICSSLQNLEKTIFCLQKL

variants of: B1; assay: protein stability index of a GFP-peptide fusion (GPS, HEK-293T) (PSI 1-6); higher = more stable; conditions: c terminus: a fixed tail appended;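 further: lentivirally expressed fusions sorted by FACS into six bins by GFP to DsRed ratio, PSI derived from sequencing read proportions per bin multiplied by bin number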
Decision: protein stability index compared against 3; not below it gives criterion met, below it gives criterion not met.

Please review the entries below; each comes with its answer.
mutation.notation	label.class
L21S	criterion not met
L24C	criterion met
Q22P	criterion not met
K23Y	criterion met
L11Q	criterion not met
Y2K	criterion not met
A6Y	criterion not met
E15T	criterion not met

Challenge: Given the entry K23D , answer whether its protein stability index meets or surpasses 3.
Response given: criterion not met

Challenge: Identify whether the reported protein stability index of the following variant is 3 or greater: S9D
Response given: criterion not met

Challenge: Identify whether the reported protein stability index of the following variant is 3 or greater: C20W
Response given: criterion not met

Challenge: Does S9W have a reported protein stability index of at least 3?
Response given: criterion not met

Challenge: API: above_or_equal(metric=protein stability index, cutoff=3) for item F19V
Response given: criterion not met

Challenge: Evaluate L5C : protein stability index at minimum 3?
Response given: criterion not met

Challenge: Given Q22C , state whether its protein stability index is at least 3.
Response given: criterion not met
